The entries below are paired with their reported pIC50.
Molecular target: UniProt:Q8NET8
Assay: FLIPR Assay (calcium flux, HEK293 cells stably expressing TRPV3)
Type: cell-based
Settings: read-out: FLIPR IC50
Sequence (Q8NET8 whole entry): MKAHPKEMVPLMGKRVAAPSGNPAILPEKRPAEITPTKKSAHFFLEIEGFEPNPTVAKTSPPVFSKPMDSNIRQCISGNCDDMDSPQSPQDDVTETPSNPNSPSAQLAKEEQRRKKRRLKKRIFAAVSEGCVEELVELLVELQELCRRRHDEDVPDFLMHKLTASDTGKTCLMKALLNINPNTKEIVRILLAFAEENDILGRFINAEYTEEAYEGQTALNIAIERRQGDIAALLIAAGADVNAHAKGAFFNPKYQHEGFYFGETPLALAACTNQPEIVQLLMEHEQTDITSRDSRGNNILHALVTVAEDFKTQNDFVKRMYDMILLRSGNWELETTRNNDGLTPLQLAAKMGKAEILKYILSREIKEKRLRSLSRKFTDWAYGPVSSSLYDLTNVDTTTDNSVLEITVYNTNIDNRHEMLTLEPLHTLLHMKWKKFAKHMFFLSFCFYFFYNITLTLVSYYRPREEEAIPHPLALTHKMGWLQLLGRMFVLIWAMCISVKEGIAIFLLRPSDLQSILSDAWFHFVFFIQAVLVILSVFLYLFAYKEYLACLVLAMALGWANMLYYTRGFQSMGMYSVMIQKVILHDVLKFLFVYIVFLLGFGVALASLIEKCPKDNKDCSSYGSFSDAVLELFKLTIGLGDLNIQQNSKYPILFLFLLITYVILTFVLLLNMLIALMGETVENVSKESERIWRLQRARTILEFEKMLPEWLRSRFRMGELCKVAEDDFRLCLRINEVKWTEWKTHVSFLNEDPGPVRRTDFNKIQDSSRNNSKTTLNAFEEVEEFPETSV
pIC50: −log10 of the molar value.
MEASUREMENT_TYPE: pIC50

[[record]]
molecule = "O=C(c1cnc(CO)cn1)N1CCC(c2ccc(-c3ccccc3C3CC3)cc2CO)C1 (stereo not shown) [Compound 2-137]"
result_operator = "<"
quantitative_result = 5.00

[[record]]
molecule = "COc1cncc(C(=O)N2CCC(c3ccc(-c4ccccc4C4CC4)cc3CO)C2)n1 (stereo not shown) [Compound 2-125]"
result_operator = "="
quantitative_result = 5.75

[[record]]
molecule = "COc1cnc(C(=O)N2CCC(c3ccc(-c4ccccc4C4CC4)cc3CO)C2)nc1 (stereo not shown) [Compound 2.158]"
result_operator = "="
quantitative_result = 5.21

[[record]]
molecule = "O=C(c1cc(CO)ccn1)N1CCC(c2ccc(-c3ccccc3C3CC3)cc2CO)C1 (stereo not shown) [Compound 2.154]"
result_operator = "="
quantitative_result = 5.38


###

Biological target: hTRPV3 (Homo sapiens (Human), UniProt Q8NET8)
Experiment: Semi-auto patch clamp recording in nHEK cells (WT or TRPV3-mu transfected)
Format: cell-based
Sequence (Q8NET8 whole entry, looked up): as the sequence (Q8NET8 whole entry) above
pIC50: −log10 of the molar value.
The entries below are paired with their reported pIC50.
MEASUREMENT_TYPE: pIC50

[[record]]
compound = "COCc1cccc(C(=O)N2CCC(c3ccc(-c4ccccc4C4CC4)cc3CO)C2)n1 (stereo not shown) [KM-036]"
result = "7.00 to 8.00"

[[record]]
compound = "COCc1cccc(C(=O)N2CC[C@H](c3ccc(-c4ccccc4C4CC4)cc3CO)C2)n1 (stereo in doubt) [KM-036-E1]"
result = "7.00 to 8.00"

[[record]]
compound = "CNc1cncc(C(=O)N2CCC(c3ccc(-c4ccccc4C(C)C)cc3CO)C2)n1 (stereo not shown) [KM-069]"
result = "7.00 to 8.00"

[[record]]
compound = "CC(C)c1ccccc1-c1ccc([C@H]2CCN(C(=O)c3ccc(F)cn3)C2)c(CO)c1 (stereo in doubt) [KM-002-E1]"
result = "> 8.00"

[[record]]
compound = "COc1cncc(C(=O)N2CCC(c3ccc(-c4cccc5c4CCC5)cc3CO)C2)n1 (stereo not shown) [KM-071]"
result = "7.00 to 8.00"

[[record]]
compound = "COc1cncc(C(=O)N2CC[C@H](c3ccc(-c4ccccc4C4CC4)cc3CO)C2)n1 (stereo in doubt) [KM-031-E1]"
result = "7.00 to 8.00"

[[record]]
compound = "Cc1cncc(C(=O)N2CC[C@H](c3ccc(-c4ccccc4C4CC4)cc3CO)C2)n1 (stereo in doubt) [KM-032-E1]"
result = "7.00 to 8.00"


###

Target: UniProt:Q8NET8
Assay: hTRPV3 HAMA IC50 assay (Hamamatsu FDSS6000 calcium flux, TRex-293 cells)
Conditions: 5 min
MEASUREMENT_TYPE: hTRPV3 HAMA IC50 (nM) (5 min)

[[record]]
molecule = "Cc1ccccc1-c1ccc(N2CC[C@H](Oc3ncccc3C)C2)c(CO)n1 [Compound 1-179]"
tested_system = "UniProt:Q8NET8"
result = "no fit (5 min)"

[[record]]
molecule = "COc1ccccc1Oc1ccc(N2CC[C@H](Oc3ncccc3Cl)C2)c(CO)c1 [Compound 1-221]"
tested_system = "UniProt:Q8NET8"
result = "no fit"

[[record]]
molecule = "NC(=O)c1cc(C(=O)c2ccccc2)ccc1N1CC[C@H](Oc2ccc(C(F)(F)F)cn2)C1 [Compound 1-130]"
tested_system = "UniProt:Q8NET8"
result = "no fit (5 min)"

[[record]]
molecule = "Cc1cccnc1O[C@H]1CCN(c2ccc(-c3ccccc3Cl)cc2CCO)C1 [Compound 1-194]"
tested_system = "UniProt:Q8NET8"
result = "no fit (5 min)"

[[record]]
molecule = "Nc1cc(-c2ccccc2)ccc1N1CC[C@H](Oc2ccc3cc(Cl)ccc3n2)C1 [Compound 1-71]"
tested_system = "UniProt:Q8NET8"
result = "no fit (5 min)"

[[record]]
molecule = "NC(=O)c1cc(-c2ccccc2Cl)ccc1N1CC[C@H](Oc2ccc(C(F)(F)F)cn2)C1 [Compound 1-64]"
tested_system = "UniProt:Q8NET8"
result = "no fit (5 min)"

[[record]]
molecule = "N#Cc1cc(C(F)(F)F)ccc1N1CC[C@H](Oc2ccc(C(F)(F)F)cn2)C1 [Compound 1-57]"
tested_system = "UniProt:Q8NET8"
result = "no fit (5 min)"

[[record]]
molecule = "OCCOc1cc(-c2ccccc2)ccc1N1CC[C@H](Oc2ccc(C(F)(F)F)cn2)C1 [Compound 1-135]"
tested_system = "UniProt:Q8NET8"
result = "no fit (5 min)"

[[record]]
molecule = "OCCCc1cc(-c2ccccc2Cl)ccc1N1CC[C@H](Oc2ccc(C(F)(F)F)cn2)C1 [Compound 1-164]"
tested_system = "UniProt:Q8NET8"
result = "no fit (5 min)"

[[record]]
molecule = "CCc1ccccc1Oc1ccc(N2CC[C@H](Oc3ncccc3Cl)C2)c(CO)c1 [Compound 1-222]"
tested_system = "UniProt:Q8NET8"
result = "no fit"

[[record]]
molecule = "NC(=O)c1cc(Oc2ccccc2Cl)ccc1N1CC[C@H](Oc2ncccc2Cl)C1 [Compound 1-181]"
tested_system = "UniProt:Q8NET8"
result = "no fit (5 min)"

[[record]]
molecule = "CCc1ccccc1Oc1ccc(N2CC[C@H](Oc3ncccc3Cl)C2)c(CCO)c1 [Compound 1-236]"
tested_system = "UniProt:Q8NET8"
result = "no fit"

[[record]]
molecule = "NC(=O)c1cc(C(F)(F)F)ccc1N1CC[C@H](Oc2ccc(C(F)(F)F)cn2)C1 [Compound 1-58]"
tested_system = "UniProt:Q8NET8"
result = "no fit (5 min)"

[[record]]
molecule = "NC(=O)c1cc(-c2ccccc2)ccc1N1CC[C@H](Oc2ccc(C(F)(F)F)cn2)C1 [Compound 1-32]"
tested_system = "UniProt:Q8NET8"
result = "no fit (5 min)"

[[record]]
molecule = "OCc1cc(Oc2ccccc2Cl)ccc1N1CC[C@H](Oc2ncccc2Cl)C1 [Compound 1-223]"
tested_system = "UniProt:Q8NET8"
result = "no fit"

[[record]]
molecule = "CCc1ccccc1Oc1ccc(CO)c(N2CC[C@H](Oc3ncccc3Cl)C2)c1 [Compound 1-233]"
tested_system = "UniProt:Q8NET8"
result = "no fit"


###

Assay: Metabolic Stability assay, human liver microsomes
Type: in vitro ADME
Settings: read-out: LM T1/2 (min) human
The entries below are paired with their reported half-life at 1 μM.
MEASUREMENT_TYPE: half-life at 1 μM (min)

[[record]]
molecule = "CC(C)c1ccccc1-c1ccc(C2CCN(C(=O)c3cc(Cl)ccn3)C2)c(CO)c1 (centres unmarked) [Compound 2-49]"
measurement_type = "half-life at 1 μM"
unit_descriptor = "min"
quantitative_result = 12.2

[[record]]
molecule = "O=C(c1ccc(F)cn1)N1CCC(c2ccc(-c3ccccc3C3CC3)cc2CO)C1 (centres unmarked) [Compound 2-72]"
measurement_type = "half-life at 1 μM"
unit_descriptor = "min"
quantitative_result = 17.5

[[record]]
molecule = "CC(C)c1ccccc1-c1ccc(C2CCN(C(=O)c3ccc(F)cn3)C2)c(CO)c1 (centres unmarked) [Compound 2-29]"
measurement_type = "half-life at 1 μM"
unit_descriptor = "min"
quantitative_result = 8.8

[[record]]
molecule = "O=C(c1ccc(Cl)cn1)N1CCC(c2ccc(-c3ccccc3C3CC3)cc2CO)C1 (centres unmarked) [Compound 2-56]"
measurement_type = "half-life at 1 μM"
unit_descriptor = "min"
quantitative_result = 24.6

[[record]]
molecule = "CCc1cc(C)ccc1-c1ccc(C2CCN(C(=O)c3ccc(F)cn3)C2)c(CO)c1 (centres unmarked) [Compound 2-62]"
measurement_type = "half-life at 1 μM"
unit_descriptor = "min"
quantitative_result = 14.9

[[record]]
molecule = "CCc1ccccc1-c1ccc(C2CCN(C(=O)c3ncccc3Cl)C2)c(CO)c1 (centres unmarked) [Compound 2-52]"
measurement_type = "half-life at 1 μM"
unit_descriptor = "min"
quantitative_result = 14.4

[[record]]
molecule = "CCc1ccccc1-c1ccc(C2CCN(C(=O)c3cccc(Cl)n3)C2)c(CO)c1 (centres unmarked) [Compound 2-53]"
measurement_type = "half-life at 1 μM"
unit_descriptor = "min"
quantitative_result = 24.9

[[record]]
molecule = "O=C(c1ccc(C(F)(F)F)cn1)N1CCC(c2ccc(-c3ccccc3C3CC3)cc2CO)C1 (centres unmarked) [Compound 2-58]"
measurement_type = "half-life at 1 μM"
unit_descriptor = "min"
quantitative_result = 54.6


###

Biological target: hTRPV3 (Homo sapiens (Human), UniProt Q8NET8)
Assay: Whole-cell patch clamp, hTRPV3 Phase 1 / Phase 2 currents
Assay type: cell-based
Conditions: Phase 1 current; read-out: hTRPV3 (nM) (Phase 1)
With a cut-off of 100 nM, any IC50 strictly below it is called Criterion met; any IC50 meeting it or above is called Criterion not met.

[[record]]
compound = "CCc1ccccc1Oc1ccc(N2CC[C@H](Oc3ccc(C#N)cn3)C2)c(CCO)c1"
group = "Criterion not met"

[[record]]
compound = "Cc1ccccc1-c1ccc(N2CC[C@H](Oc3ccc(C(F)(F)F)cn3)C2)c(CO)n1"
group = "Criterion not met"

[[record]]
compound = "CCc1ccccc1-c1ccc(N2CC[C@H](Oc3ccc(C)cn3)C2)c(CCO)n1"
group = "Criterion not met"

[[record]]
compound = "OCCc1cc(-c2ccccc2)ccc1N1CC[C@H](Oc2ccc(C(F)(F)F)cn2)C1"
group = "Criterion not met"

[[record]]
compound = "O=C(c1cccc(F)c1)c1ccc(N2CC[C@H](Oc3ncccc3Cl)C2)c(CCO)c1"
group = "Criterion not met"

[[record]]
compound = "NC(=O)c1cc(-c2ccccc2)cnc1N1CC[C@@H](Nc2ccc(C(F)(F)F)cn2)C1"
group = "Criterion not met"

[[record]]
compound = "CN(C(=O)c1ccc(N2CC[C@H](Oc3ncccc3Cl)C2)c(CCO)c1)c1ccccc1"
group = "Criterion not met"

[[record]]
compound = "COc1ccccc1-c1ccc(N2CC[C@H](Oc3ccc(C(F)(F)F)cn3)C2)c(CO)c1"
group = "Criterion not met"

[[record]]
compound = "Cc1cccc(Oc2ccc(N3CC[C@H](Oc4ncccc4Cl)C3)c(CO)c2)c1"
group = "Criterion met"

[[record]]
compound = "Cc1ccccc1Oc1ccc(N2CC[C@H](Oc3ncccc3Cl)C2)c(CCO)c1"
group = "Criterion met"

[[record]]
compound = "CC(=O)c1ccccc1-c1ccc(N2CC[C@H](Oc3ccc(C(F)(F)F)cn3)C2)c(CO)c1"
group = "Criterion not met"

[[record]]
compound = "OCc1cc(Oc2cccc(Cl)c2)ccc1N1CC[C@H](Oc2ccccn2)C1"
group = "Criterion met"

[[record]]
compound = "O=C1C(Oc2ccc3ccccc3n2)CCN1c1ccccc1 (stereo not shown)"
group = "Criterion not met"

[[record]]
compound = "OCCc1cc(C(O)c2ccccc2Cl)ccc1N1CC[C@H](Nc2ccc(F)cn2)C1 (stereo partly shown)"
group = "Criterion not met"

[[record]]
compound = "NC(=O)c1cc(-c2ccccn2)ccc1N1CC[C@@H](Oc2ccccn2)C1"
group = "Criterion not met"

